- assayText: Displacement of [32P]NAADP from NAADP receptor in sea urchin microsomes after 90 mins by liquid scintillation counting
- Design: species or system Strongylocentrotus purpuratus, Microsome
quantity: IC50 (nM)
One number for each entry, in nM.

Here's what some known entries look like.
Nc1cc[n+]([C@H]2O[C@@H](COP(=O)(O)OP(=O)(O)OC[C@H]3O[C@@H](n4cnc5c(N)ncnc54)[C@H](OP(=O)(O)O)[C@@H]3O)[C@H](O)[C@@H]2O)cc1C(=O)[O-]	141
[N-]=[N+]=Nc1cc(C(=O)[O-])c[n+]([C@H]2O[C@@H](COP(=O)(O)OP(=O)(O)OC[C@H]3O[C@@H](n4cnc5c(N)ncnc54)[C@H](OP(=O)(O)O)[C@@H]3O)[C@H](O)[C@@H]2O)c1	18
CCc1cc(C(=O)[O-])c[n+]([C@H]2O[C@@H](COP(=O)(O)OP(=O)(O)OC[C@H]3O[C@@H](n4cnc5c(N)ncnc54)[C@H](OP(=O)(O)O)[C@@H]3O)[C@H](O)[C@@H]2O)c1	37

Here is the next item to consider.
Problem: Give the measured IC50 of Nc1cc(C(=O)[O-])c[n+]([C@H]2O[C@@H](COP(=O)(O)OP(=O)(O)OC[C@H]3O[C@@H](n4cnc5c(N)ncnc54)[C@H](OP(=O)(O)O)[C@@H]3O)[C@H](O)[C@@H]2O)c1 .
Result: 1.7

---

Record form. Attribute: fold change (FC). Fill in for each entry.
- Test system: Strongylocentrotus purpuratus
- assayText: Binding affinity to NAADP receptor in sea urchin microsomes assessed as fold increase in IC50 for displacement of [32P]NAADP from receptor relative to NAADP
- runConditions: Microsome
Give bare numbers.

Here's what some known entries look like.
Nc1cc[n+]([C@H]2O[C@@H](COP(=O)(O)OP(=O)(O)OC[C@H]3O[C@@H](n4cnc5c(N)ncnc54)[C@H](OP(=O)(O)O)[C@@H]3O)[C@H](O)[C@@H]2O)cc1C(=O)[O-]	88
Nc1cc(C(=O)[O-])c[n+]([C@H]2O[C@@H](COP(=O)(O)OP(=O)(O)OC[C@H]3O[C@@H](n4cnc5c(N)ncnc54)[C@H](OP(=O)(O)O)[C@@H]3O)[C@H](O)[C@@H]2O)c1	1.1
Cc1cc(C(=O)[O-])c[n+]([C@H]2O[C@@H](COP(=O)(O)OP(=O)(O)OC[C@H]3O[C@@H](n4cnc5c(N)ncnc54)[C@H](OP(=O)(O)O)[C@@H]3O)[C@H](O)[C@@H]2O)c1	1.2
Cc1cc[n+]([C@H]2O[C@@H](COP(=O)(O)OP(=O)(O)OC[C@H]3O[C@@H](n4cnc5c(N)ncnc54)[C@H](OP(=O)(O)O)[C@@H]3O)[C@H](O)[C@@H]2O)cc1C(=O)[O-]	93
Nc1ncnc2c1ncn2[C@@H]1O[C@H](COP(=O)(O)OP(=O)(O)OC[C@@H]2O[C@H]([n+]3ccc(-c4ccccc4)c(C(=O)[O-])c3)[C@@H](O)[C@H]2O)[C@@H](O)[C@H]1OP(=O)(O)O	540

The following compounds each have a reported value; give each one's fold change (FC).
1. CCc1cc(C(=O)[O-])c[n+]([C@H]2O[C@@H](COP(=O)(O)OP(=O)(O)OC[C@H]3O[C@@H](n4cnc5c(N)ncnc54)[C@H](OP(=O)(O)O)[C@@H]3O)[C@H](O)[C@@H]2O)c1
2. [N-]=[N+]=Nc1cc(C(=O)[O-])c[n+]([C@H]2O[C@@H](COP(=O)(O)OP(=O)(O)OC[C@H]3O[C@@H](n4cnc5c(N)ncnc54)[C@H](OP(=O)(O)O)[C@@H]3O)[C@H](O)[C@@H]2O)c1
3. CCCCc1cc[n+]([C@H]2O[C@@H](COP(=O)(O)OP(=O)(O)OC[C@H]3O[C@@H](n4cnc5c(N)ncnc54)[C@H](OP(=O)(O)O)[C@@H]3O)[C@H](O)[C@@H]2O)cc1C(=O)[O-]

Result:
23
11
303
